src = patent US20200109188A1

Neutralization IC50, H1-BS10 values for the binders below.
target: HA of H1-BS10 virus; experiment: cell-based or functional assay
measured.attribute: Neutralization IC50, H1-BS10

binder	reported
Antibody 11 (antibody, V domains shown) VH: QVQLQQSGPGLVKPSQTLSLTCAISGDSVSSYNAVWNWIRQSPSRGLEWLGRTYYRSGWYNDYAESVKSRITINPDTSKNQFSLQLNSVTPEDTAVYYCARSGHITVFGVNVDAFDMWGQGTMVTVSS VL: DIQMTQSPSSLSASVGDRVTITCRTSQSLSSYTHWYQQKPGKAPKLLIYAASSRLSGVPSRFSGSGSGTDFTLTISSLQPEDFATYYCQQSRTFGQGTKVEIK	1.15 µg/mL
Antibody 12 (antibody, V domains shown) VH: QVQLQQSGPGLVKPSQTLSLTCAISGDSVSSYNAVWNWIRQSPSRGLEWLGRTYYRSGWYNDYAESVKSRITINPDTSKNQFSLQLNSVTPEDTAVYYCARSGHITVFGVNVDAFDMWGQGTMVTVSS VL: DIQMTQSPSSLSASVGDRVTITCRTSQSLSSYTHWYQQKPGKAPKLLIYAASSRGSGVPSRFSGSGSGTDFTLTISSLQPEDFATYYCQQSRTFGQGTKVEIK	1.25 µg/mL
Antibody 15 (antibody, V domains shown) VH: QVQLQQSGPGLVKPSQTLSLTCAISGDSVSSNNAVWNWIRQSPSRGLEWLGRTYYRSKWYNDYAESVKSRITINPDTSKNQFSLQLNSVTPEDTAVYYCARSGHITVFGVNVDAFDMWGQGTTVTVSS VL: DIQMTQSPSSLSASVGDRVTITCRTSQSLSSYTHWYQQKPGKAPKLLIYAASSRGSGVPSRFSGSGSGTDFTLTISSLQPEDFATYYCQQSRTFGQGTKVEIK	1.89 µg/mL
Antibody 13 (antibody, V domains shown) VH: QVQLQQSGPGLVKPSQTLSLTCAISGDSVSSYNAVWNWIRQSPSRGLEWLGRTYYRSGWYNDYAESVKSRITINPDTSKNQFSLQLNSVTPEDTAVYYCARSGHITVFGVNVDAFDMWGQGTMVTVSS VL: DIQMTQSPSSLSASVGDRVTITCRTSQSLSSYDHWYQQKPGKAPKLLIYAASSRLSGVPSRFSGSGSGTDFTLTISSLQPEDFATYYCQQSRTFGQGTKVEIK	1.23 µg/mL
Antibody 14 (antibody, V domains shown) VH: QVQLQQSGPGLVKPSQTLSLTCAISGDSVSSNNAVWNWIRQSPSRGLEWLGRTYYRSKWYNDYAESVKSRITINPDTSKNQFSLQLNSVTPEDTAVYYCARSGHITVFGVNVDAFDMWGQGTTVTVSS VL: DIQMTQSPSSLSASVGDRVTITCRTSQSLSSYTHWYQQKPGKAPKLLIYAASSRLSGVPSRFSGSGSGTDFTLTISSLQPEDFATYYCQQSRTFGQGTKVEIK	1.93 µg/mL
